Every entry's value here was drawn from patent US20050004092A1.

Tested on: Staphylococcus aureus 209P JC-1 strain
PROTOCOL DETAILS: antibacterial activity (MIC), standard in vitro dilution test
Format: cell-based
TEST SETTINGS: Staphylococcus aureus, 209P, test bacterium strain 10^5 cfu/ml; read-out: MIC, Staphylococcus aureus 209P JC-1 strain
QUANTITY NAME: MIC (µg/mL)
Answers are plain numbers, in µg/mL.

Solved cases (3 shown):
MOLECULE	MIC / µg/mL
CC[C@H](O)[C@@H]1C(=O)N2C(C(=O)O)=C(SC3CCCN(Cc4ccccc4)C3)S[C@H]12 (stereo partly shown)	0.2
CC[C@H](O)[C@@H]1C(=O)N2C(C(=O)O)=C(S[C@H]3CCN(C(=N)CF)C3)S[C@H]12	0.1
CC[C@H](O)[C@@H]1C(=O)N2C(C(=O)O)=C(Sc3nc(-c4ccccc4)cs3)S[C@H]12	0.05

# input for lookup
// query Query (molecule): `CC[C@H](O)[C@@H]1C(=O)N2C(C(=O)O)=C(SCCN)S[C@H]12` ; field requested: MIC
// result 0.1

* * *

System: Staphylococcus aureus 209P JC-1 strain
PROTOCOL DETAILS: antibacterial activity (MIC), standard in vitro dilution test
Assay type: cell-based
TEST SETTINGS: Staphylococcus aureus, 209P, test bacterium strain 10^5 cfu/ml; read-out: MIC, Staphylococcus aureus 209P JC-1 strain
QUANTITY NAME: MIC (µg/mL)
Numbers only, in µg/mL.

MOLECULE	MIC (µg/mL)
CC[C@H](O)[C@@H]1C(=O)N2C(C(=O)O)=C(SC3CCN(C4CCCC4)C3)S[C@H]12 (some centres unmarked) [Ex. 227]	0.1
CC[C@H](O)[C@@H]1C(=O)N2C(C(=O)O)=C(SCCNC(C)=N)S[C@H]12 [Ex. 131]	0.1

Give MIC for each listed item.
1. CCC(=N)N1CC[C@H](SC2=C(C(=O)O)N3C(=O)[C@@H]([C@@H](O)CC)[C@H]3S2)C1 [Ex. 250]
2. CC[C@H](O)[C@@H]1C(=O)N2C(C(=O)O)=C(S[C@H]3CCN(CC4CC4)C3)S[C@H]12 [Ex. 230]
3. CC[C@H](O)[C@@H]1C(=O)N2C(C(=O)O)=C(SC3CN(C=N)C3)S[C@H]12 [Ex. 254]

// result
[0.2, 0.2, 0.1]

Give MIC for each listed item.
1. CC[C@H](O)[C@@H]1C(=O)N2C(C(=O)O)=C(SCc3nc4ccccc4[nH]3)SC12 (some centres unmarked) [Ex. 205]
2. CC[C@H](O)[C@@H]1C(=O)N2C(C(=O)O)=C(SCc3ccncc3)S[C@H]12 [Ex. 224]
3. CC[C@H](O)[C@@H]1C(=O)N2C(C(=O)O)=C(SCCN3CCCC3)S[C@H]12 [Ex. 143]

// result
1. 0.1
2. 0.2
3. 0.39

* * *

Would you mind telling me the reported MIC of each entry?
Test system: MRSA 31 high-resist. (IPM resist.)
PROTOCOL DETAILS: antibacterial activity (MIC), standard in vitro dilution test
Format: cell-based, Staphylococcus aureus
TEST SETTINGS: Staphylococcus aureus, MRSA, test bacterium strain 10^5 cfu/ml; read-out: MIC, MRSA 31 high-resist. (IPM resist.)
Description: With respect to certain compounds (I) of the present invention, their general antibacterial activities and their antibacterial activities (MIC) against various methicillin-resistant strains of Staphylococcus aureus (methicillin-resistant Staphylococcus aureus: MRSA) were investigated. The results will be shown next. Of the investigations, the general antibacterial activities were investigated by a standard in vitro dilution test. […]
One number for each entry, in µg/mL.

COMPOUND	MIC [µg/mL]
CC[C@H](O)[C@@H]1C(=O)N2C(C(=O)O)=C(SCCn3cccc3)S[C@H]12 [Ex. 147]	3.13
CC[C@H](O)[C@@H]1C(=O)N2C(C(=O)O)=C(SCc3ccc(Cl)c(Cl)c3)S[C@H]12 [Ex. 236]	1.56
CCC(=N)N1CC[C@H](SC2=C(C(=O)O)N3C(=O)[C@@H]([C@@H](O)CC)[C@H]3S2)C1 [Ex. 250]	6.25
CC[C@H](O)[C@@H]1C(=O)N2C(C(=O)O)=C(SC3CCN(C/C=C/c4ccccc4)C3)S[C@H]12 (stereo partly drawn) [Ex. 228]	3.13
CC[C@H](O)[C@@H]1C(=O)N2C(C(=O)O)=C(S[C@H]3CCN(CC(=O)c4ccc(C)cc4)C3)S[C@H]12 [Ex. 113]	6.25

Give MIC for each listed item.
1. CC[C@H](O)[C@@H]1C(=O)N2C(C(=O)O)=C(S[C@H]3CCN(CC(=O)c4ccc(F)cc4)C3)S[C@H]12 [Ex. 112]
2. CC[C@H](O)[C@@H]1C(=O)N2C(C(=O)O)=C(SCCN3CCCC3)S[C@H]12 [Ex. 143]
3. CC[C@H](O)[C@@H]1C(=O)N2C(C(=O)O)=C(S[C@H]3CCN(CCC(=O)c4ccccc4)C3)S[C@H]12 [Ex. 116]
4. CC[C@H](O)[C@@H]1C(=O)N2C(C(=O)O)=C(SCc3ccncc3)S[C@H]12 [Ex. 224]
5. CC[C@H](O)[C@@H]1C(=O)N2C(C(=O)O)=C(S[C@H]3CCN(c4nccs4)C3)S[C@H]12 [Ex. 229]
6. CC[C@H](O)[C@@H]1C(=O)N2C(C(=O)O)=C(SC3CCN(C(=N)NC(=O)c4ccccc4)C3)S[C@H]12 (stereo partly drawn) [Ex. 218]
7. CC[C@H](O)[C@@H]1C(=O)N2C(C(=O)O)=C(SCCNC(C)=N)S[C@H]12 [Ex. 131]
8. CC[C@H](O)[C@@H]1C(=O)N2C(C(=O)O)=C(SCc3ccccn3)S[C@H]12 [Ex. 129]

// result
6.25
6.25
3.13
3.13
3.13
6.25
6.25
6.25

Give MIC for each listed item.
1. CC[C@H](O)[C@@H]1C(=O)N2C(C(=O)O)=C(S[C@H]3CCN(C(=N)CF)C3)S[C@H]12 [Ex. 253]
2. CC[C@H](O)[C@@H]1C(=O)N2C(C(=O)O)=C(S[C@H]3CCN(CC(=O)c4ccc5c(c4)OCO5)C3)S[C@H]12 [Ex. 207]

// result
1: 6.25; 2: 6.25

* * *

Tested on: Staphylococcus aureus 209P JC-1 strain
PROTOCOL DETAILS: antibacterial activity (MIC), standard in vitro dilution test
Type: cell-based
TEST SETTINGS: Staphylococcus aureus, 209P, test bacterium strain 10^5 cfu/ml; read-out: MIC, Staphylococcus aureus 209P JC-1 strain
Text: With respect to certain compounds (I) of the present invention, their general antibacterial activities and their antibacterial activities (MIC) against various methicillin-resistant strains of Staphylococcus aureus (methicillin-resistant Staphylococcus aureus: MRSA) were investigated. The results will be shown next. Of the investigations, the general antibacterial activities were investigated by a standard in vitro dilution test. […]
QUANTITY NAME: MIC (µg/mL)
Give bare numbers, in µg/mL.

MOLECULE	TARGET SYSTEM	VALUE UNITS	OBSERVED MEASUREMENT
CC[C@H](O)[C@]1(C(=O)O)C(=O)N2C=C(S[C@H]3CCN(Cc4ccccc4)C3)S[C@@H]21 [Ex. 44]	Staphylococcus aureus 209P JC-1 strain	µg/mL	0.1
CC[C@H](O)[C@@H]1C(=O)N2C(C(=O)O)=C(SC3CCN(CC(=O)c4ccccc4C)C3)S[C@H]12 (stereo partly drawn) [Ex. 226]	Staphylococcus aureus 209P JC-1 strain	µg/mL	0.2
CC[C@H](O)[C@@H]1C(=O)N2C(C(=O)O)=C(S[C@H]3CCN(C[C@@H](O)c4ccccc4)C3)S[C@H]12 [Ex. 107]	Staphylococcus aureus 209P JC-1 strain	µg/mL	0.1
CC[C@H](O)[C@@H]1C(=O)N2C(C(=O)O)=C(SCCNC(=N)c3ccccc3)S[C@H]12 [Ex. 132]	Staphylococcus aureus 209P JC-1 strain	µg/mL	0.1
CC[C@H](O)[C@@H]1C(=O)N2C(C(=O)O)=C(S[C@H]3CCN(CC(=O)c4ccc(OC)cc4)C3)S[C@H]12 [Ex. 114]	Staphylococcus aureus 209P JC-1 strain	µg/mL	0.2
CC[C@H](O)[C@@H]1C(=O)N2C(C(=O)O)=C(S[C@H]3CCN(CCCC(=O)c4ccccc4)C3)S[C@H]12 [Ex. 215]	Staphylococcus aureus 209P JC-1 strain	µg/mL	0.1
CC[C@H](O)[C@@H]1C(=O)N2C(C(=O)O)=C(SC3CN(C(C)=N)C3)S[C@H]12 [Ex. 255]	Staphylococcus aureus 209P JC-1 strain	µg/mL	0.1
CC[C@H](O)[C@@H]1C(=O)N2C(C(=O)O)=C(S[C@H]3CCN(CC(=O)c4ccc(F)cc4)C3)S[C@H]12 [Ex. 112]	Staphylococcus aureus 209P JC-1 strain	µg/mL	0.1

# input for lookup
// query Query (molecule): CC[C@H](O)[C@@H]1C(=O)N2C(C(=O)O)=C(Sc3ccccc3)S[C@H]12 [Ex. 151] ; field requested: MIC
// result 0.1
